# key: entry, value: MIC
tested on: Bacteroides spp. spontaneous mutants; assay: Broth microdilution MIC of spontaneous mutants; assay type: cell-based; details: B. ovatus MMX 3503; selected on rifaximin 8X MIC; Colony B
Expressed in µg/mL, but write only the number.

Exercise: So what MIC did COc1c(N2C[C@@H]3CCCN[C@@H]3C2)c(F)cc2c(=O)c(C(=O)O)cn(C3CC3)c12 get with Bacteroides spp. spontaneous mutants?
Solution: 1

New cases:
Exercise: // fetch Bacteroides spp. spontaneous mutants MIC for CCC[C@@H]1C[C@@H](C(=O)N[C@@H]([C@H]2O[C@H](SC)[C@H](O)[C@@H](O)[C@H]2O)[C@H](C)Cl)N(C)C1
Solution: 1

Exercise: Param readout = MIC; param system = Bacteroides spp. spontaneous mutants; param query = Cc1ncc([N+](=O)[O-])n1CCO ; response: value
Solution: 2

###

In this section, each of the compounds is paired with its reported MIC.
test system: Streptococcus spp. spontaneous mutants; test: organism not typed; type: cell-based; conditions: S. agaloctiae ATCC 13813; selected on rifaximin 8X MIC; Colony B
Unit µg/mL implied. Number only.

Consider the following illustrative entries.
Exercise: Look at this compound and give its reported MIC. CCC[C@@H]1C[C@@H](C(=O)N[C@@H]([C@H]2O[C@H](SC)[C@H](O)[C@@H](O)[C@H]2O)[C@H](C)Cl)N(C)C1 [CLIN]
Solution: 0.03

Exercise: Could you share which MIC value was measured for COc1c(N2C[C@@H]3CCCN[C@@H]3C2)c(F)cc2c(=O)c(C(=O)O)cn(C3CC3)c12 [MOX] ?
Solution: 0.03

Exercise: Quick check: MIC of CC[C@H]1OC(=O)[C@H](C)[C@@H](O[C@H]2C[C@@](C)(OC)[C@@H](O)[C@H](C)O2)[C@H](C)[C@@H](O[C@@H]2O[C@H](C)C[C@H](N(C)C)[C@H]2O)[C@](C)(O)C[C@@H](C)CN(C)[C@H](C)[C@@H](O)[C@]1(C)O [AZI] ?
Solution: 0.015

New cases:
Exercise: # lookup: MIC of CN(C)[C@@H]1C(O)=C(C(N)=O)C(=O)[C@@]2(O)C(O)=C3C(=O)c4c(O)cccc4[C@@](C)(O)[C@H]3C[C@@H]12 [TET]
Solution: 0.25

###

Measured MIC, listed per entry for reference.
system: Streptococcus spp. spontaneous mutants; test: organism not typed; format: cell-based; conditions: S. pyogenes ATCC 49399 Parent

Some entries whose results are on file:
Exercise: May I ask what MIC has been recorded for CO/N=C(\C(=O)N[C@@H]1C(=O)N2C(C(=O)O)=C(CSc3nc(=O)c(=O)[nH]n3C)CS[C@H]12)c1csc(N)n1 ?
Solution: 0.015 µg/mL

Exercise: Any idea what MIC was measured for CO[C@H]1/C=C/O[C@@]2(C)Oc3c(C)c(O)c4c(O)c(c5c(nc6cc(C)ccn65)c4c3C2=O)NC(=O)/C(C)=C\C=C\[C@H](C)[C@H](O)[C@@H](C)[C@@H](O)[C@@H](C)[C@H](OC(C)=O)[C@@H]1C ?
Solution: 0.06 µg/mL

Kindly review the next compound as well.
Exercise: # query: MIC of entry COc1c(N2C[C@@H]3CCCN[C@@H]3C2)c(F)cc2c(=O)c(C(=O)O)cn(C3CC3)c12
Solution: 0.06 µg/mL

###

system: Streptococcus spp.; assay: Broth microdilution MIC, 54 clinical isolates; type: cell-based; conditions: modal MIC; 54 Streptococcus spp. clinical isolates
endpoint-name: Mode (µg/mL)
Give the value in µg/mL but do not write µg/mL after it.

Exercise: Could you tell me which Mode is on file for CO/N=C(\C(=O)N[C@@H]1C(=O)N2C(C(=O)O)=C(CSc3nc(=O)c(=O)[nH]n3C)CS[C@H]12)c1csc(N)n1 ?
Solution: 0.06

Exercise: Any idea what its Mode is? The compound is COc1c(N2C[C@@H]3CCCN[C@@H]3C2)c(F)cc2c(=O)c(C(=O)O)cn(C3CC3)c12
Solution: 0.12

Continuing:
Exercise: # Mode lookup, item CO[C@H]1/C=C/O[C@@]2(C)Oc3c(C)c(O)c4c(O)c(c5c(nc6cc(C)ccn65)c4c3C2=O)NC(=O)/C(C)=C\C=C\[C@H](C)[C@H](O)[C@@H](C)[C@@H](O)[C@@H](C)[C@H](OC(C)=O)[C@@H]1C
Solution: 0.12

###

system: Streptococcus pyogenes; assay: Broth microdilution MIC, 19 clinical isolates; format: cell-based
Entries and their MIC range

Exercise: Give its MIC range value. Item: CO[C@H]1/C=C/O[C@@]2(C)Oc3c(C)c(O)c4c(O)c(c5c(nc6cc(C)ccn65)c4c3C2=O)NC(=O)/C(C)=C\C=C\[C@H](C)[C@H](O)[C@@H](C)[C@@H](O)[C@@H](C)[C@H](OC(C)=O)[C@@H]1C [rifaximin]
Solution: 0.015 to 0.25 µg/mL

Exercise: // MIC range lookup, key: COc1c(N2C[C@@H]3CCCN[C@@H]3C2)c(F)cc2c(=O)c(C(=O)O)cn(C3CC3)c12 [moxifloxacin]
Solution: 0.06 to 0.5 µg/mL

Exercise: MIC range lookup needed for CN[C@H](CC(C)C)C(=O)N[C@H]1C(=O)N[C@@H](CC(N)=O)C(=O)N[C@H]2C(=O)N[C@H]3C(=O)N[C@H](C(=O)N[C@H](C(=O)O)c4cc(O)cc(O)c4-c4cc3ccc4O)[C@H](O)c3ccc(c(Cl)c3)Oc3cc2cc(c3O[C@@H]2O[C@H](CO)[C@@H](O)[C@H](O)[C@H]2O[C@H]2C[C@](C)(N)[C@H](O)[C@H](C)O2)Oc2ccc(cc2Cl)[C@H]1O [vancomycin, Vancomycin] , thanks.
Solution: 0.25 to 0.5 µg/mL

Exercise: If you can, please state the reported MIC range value of C[C@@H](O)[C@H]1C(=O)N2C(C(=O)O)=C(S[C@@H]3CN[C@H](C(=O)N(C)C)C3)[C@H](C)[C@H]12 [meropenem] .
Solution: ≤0.002-0.03^ μg/mL

Exercise: MIC range for CO/N=C(\C(=O)N[C@@H]1C(=O)N2C(C(=O)O)=C(CSc3nc(=O)c(=O)[nH]n3C)CS[C@H]12)c1csc(N)n1 [ceftriaxone] ?
Solution: 0.015 to 0.06 µg/mL

###

Listed here: items and their measured Cumulative percentage of isolates inhibited at MIC.
system: Veillonella spp. clinical isolates; assay: MIC distribution against clinical isolates; type: cell-based; conditions: MIC 1 μg/mL; 30 Veillonella spp. isolates
All answers are understood in %, so give the number only.

Exercise: Entry under review: CO[C@H]1/C=C/O[C@@]2(C)Oc3c(C)c(O)c4c(O)c(c5c(nc6cc(C)ccn65)c4c3C2=O)NC(=O)/C(C)=C\C=C\[C@H](C)[C@H](O)[C@@H](C)[C@@H](O)[C@@H](C)[C@H](OC(C)=O)[C@@H]1C [rifaximin] . Reported Cumulative percentage of isolates inhibited at MIC?
Solution: 10.0

Exercise: What does the data say about its Cumulative percentage of isolates inhibited at MIC? Entry: Cc1ncc([N+](=O)[O-])n1CCO [MTZ]
Solution: 3.3

Exercise: // returns reported Cumulative percentage of isolates inhibited at MIC for input C[C@@H](O)[C@H]1C(=O)N2C(C(=O)O)=C(S[C@@H]3CN[C@H](C(=O)N(C)C)C3)[C@H](C)[C@H]12 [meropenem]
Solution: 53.3

Further cases:
Exercise: So what's the measured Cumulative percentage of isolates inhibited at MIC for this one? CO/N=C(\C(=O)N[C@@H]1C(=O)N2C(C(=O)O)=C(CSc3nc(=O)c(=O)[nH]n3C)CS[C@H]12)c1csc(N)n1 [ceftriaxone]
Solution: 23.3

###

Tested on: Streptococcus spp. spontaneous mutants
Assay: organism not typed
Type: cell-based
Conditions: S. pyogenes ATCC 49399 Parent
Procedure: Select isolates were subcultured onto agar containing drug at the selection concentration, were identified by MALDI, and were frozen for broth microdilution MIC testing as described below. […] The plates for the aerobic tests were stacked 3-4 high, covered with a sterile lid on the top plate, and incubated aerobically at 35° C. for 18-20 hr. The MIC was recorded as the lowest concentration of drug that inhibited visible growth of the organism.
endpoint-name: MIC (µg/mL)
// units = µg/mL; emit number, no label

Exercise: Look up MIC for this compound: CCC[C@@H]1C[C@@H](C(=O)N[C@@H]([C@H]2O[C@H](SC)[C@H](O)[C@@H](O)[C@H]2O)[C@H](C)Cl)N(C)C1 [CLIN]
Solution: 0.03

Exercise: Look up MIC: CN(C)[C@@H]1C(O)=C(C(N)=O)C(=O)[C@@]2(O)C(O)=C3C(=O)c4c(O)cccc4[C@@](C)(O)[C@H]3C[C@@H]12 [TET]
Solution: 0.12

Exercise: # input compound: C[C@@H](O)[C@H]1C(=O)N2C(C(=O)O)=C(S[C@@H]3CN[C@H](C(=O)N(C)C)C3)[C@H](C)[C@H]12 [meropenem] ; wanted: its MIC
Solution: 0.004

***
Exercise: Consider the compound CC[C@H]1OC(=O)[C@H](C)[C@@H](O[C@H]2C[C@@](C)(OC)[C@@H](O)[C@H](C)O2)[C@H](C)[C@@H](O[C@@H]2O[C@H](C)C[C@H](N(C)C)[C@H]2O)[C@](C)(O)C[C@@H](C)CN(C)[C@H](C)[C@@H](O)[C@]1(C)O [AZI] and give its measured MIC.
Solution: 0.03

Reference source for all entries: patent US20210386367A1
